system: SuperScript IV reverse transcriptase; type: biochemical

| LINE_NOTATION | SYSTEM_NAME | Inhibition of RT |
| --- | --- | --- |
| C[n+]1cc(NC(=O)c2ccc3ccc4ccc(C(=O)Nc5cc6ccccc6[n+](C)c5)nc4c3n2)cc2ccccc21 | SuperScript IV reverse transcriptase | strong inhibitory effect |
| NCCOc1cc(C(=O)Nc2cc(OCCN)c3ccccc3n2)nc(C(=O)Nc2cc(OCCN)c3ccccc3n2)c1 | SuperScript IV reverse transcriptase | strong inhibitory effect |
| CCC1=C(C)c2cc3[nH]c(cc4nc(cc5c(CCC(=O)O)c(C)c(cc1n2)n5C)C(CCC(=O)O)=C4C)c(C)c3CC | SuperScript IV reverse transcriptase | did not inhibit RT |
| COc1ccc2cc3[n+](cc2c1OC)CCc1cc2c(cc1-3)OCO2 | SuperScript IV reverse transcriptase | did not inhibit RT |

----------
system: TBEV strain Hypr; assay type: cell-based, tick-borne encephalitis virus
MEASURED_QUANTITY: Phase of the viral replication cycle in which the antiviral action takes effect

| LINE_NOTATION | SYSTEM_NAME | VALUE_MEASURED |
| --- | --- | --- |
| COc1ccc2cc3[n+](cc2c1OC)CCc1cc2c(cc1-3)OCO2 | TBEV strain Hypr | post-entry/fusion phase |
| C[n+]1cc(NC(=O)c2ccc3ccc4ccc(C(=O)Nc5cc6ccccc6[n+](C)c5)nc4c3n2)cc2ccccc21 | TBEV strain Hypr | post-entry/fusion phase |
| NCCOc1cc(NC(=O)c2cc(OCc3cn(CCC(=O)O)nn3)cc(C(=O)Nc3cc(OCCN)c4ccccc4n3)n2)nc2ccccc12 | TBEV strain Hypr | post-entry/fusion phase |
| NCCOc1cc(C(=O)Nc2cc(OCCN)c3ccccc3n2)nc(C(=O)Nc2cc(OCCN)c3ccccc3n2)c1 | TBEV strain Hypr | post-entry/fusion phase |

----------
system: PS cells; details: pig
// CC50 lookup, one value per entry
MEASURED_QUANTITY: CC50

| MOLECULE | VALUE_MEASURED |
| --- | --- |
| Cc1ccc2c(c1)sc(-c1ccc(N(C)C)cc1)[n+]2C [ThT, thioflavin T] | 10.6 µM |
| CN(C)c1ccc(C(=C2C=CC(=[N+](C)C)C=C2)c2ccc(N(C)C)cc2)cc1 [CV, crystal violet] | < 1.6 µM |
| Cc1cnc(CNC(=O)c2c(=O)c3ccc(N4CCCN(C)CC4)nc3n3c2sc2ccccc23)cn1 [CX5461] | 14.1 µM |

----------
test system: TBEV strains Neudoerfl and Hypr; assay: microbe, parasite or virus in culture; assay type: cell-based, tick-borne encephalitis virus

| LINE_NOTATION | SYSTEM_NAME | Course of anti-TBEV activity over time |
| --- | --- | --- |
| CCC1=C(C)c2cc3[nH]c(cc4nc(cc5c(CCC(=O)O)c(C)c(cc1n2)n5C)C(CCC(=O)O)=C4C)c(C)c3CC | TBEV strains Neudoerfl and Hypr | stable over time |
| COc1ccc2cc3[n+](cc2c1OC)CCc1cc2c(cc1-3)OCO2 | TBEV strains Neudoerfl and Hypr | stable over time |
| NCCOc1cc(C(=O)Nc2cc(OCCN)c3ccccc3n2)nc(C(=O)Nc2cc(OCCN)c3ccccc3n2)c1 | TBEV strains Neudoerfl and Hypr | stable over time |
